Taken from the supplement of paper PMC9023506.

# System: Danio rerio larvae (5 dpf)
# Measurement protocol: startle response to 20-s acoustic pulses, difference vs DMSO (percentage points (treated minus DMSO)); higher = more of the behaviour than the DMSO vehicle control
# Run parameters: 10 µM; exposure time: 3 h pre-incubation + 3 h imaging
Where a name gives a salt, the structure may show the parent alone.
Measurement type: startle response to 20-s acoustic pulses

Compound: C=CC(=O)N1CCC[C@@H](n2nc(-c3ccc(Oc4ccccc4)cc3)c3c(N)ncnc32)C1
Tested target: Danio rerio larvae (5 dpf)
Result value: 3.06

Compound: CNC(=O)c1cc(Oc2ccc(NC(=O)Nc3ccc(Cl)c(C(F)(F)F)c3)cc2)ccn1
Tested target: Danio rerio larvae (5 dpf)
Result value: -4.57

Compound: CNCc1ccc(-c2[nH]c3cc(F)cc4c3c2CCNC4=O)cc1 [Rucaparib camsylate]
Tested target: Danio rerio larvae (5 dpf)
Result value: -4.08

Compound: C#CCN[C@@H]1CCc2ccccc21 [Rasagiline mesylate]
Tested target: Danio rerio larvae (5 dpf)
Result value: 2.17

Compound: CC(C)(C(=O)O)c1ccc(C(O)CCCN2CCC(C(O)(c3ccccc3)c3ccccc3)CC2)cc1 (stereo not drawn) [Fexofenadine hydrochloride]
Tested target: Danio rerio larvae (5 dpf)
Result value: 4

Compound: CN1CC[C@@H](NC(=O)Nc2ccc(C#N)cc2)C[C@@H]1c1nc2ccccc2[nH]1
Tested target: Danio rerio larvae (5 dpf)
Result value: -5.85

Compound: CC(=O)Oc1ccccc1C(=O)O
Tested target: Danio rerio larvae (5 dpf)
Result value: -4.27

Compound: Cc1cc2c(s1)Nc1ccccc1N=C2N1CCN(C)CC1
Tested target: Danio rerio larvae (5 dpf)
Result value: -0.064

Compound: COc1cc(Nc2c(C#N)cnc3cc(OCCCN4CCN(C)CC4)c(OC)cc23)c(Cl)cc1Cl
Tested target: Danio rerio larvae (5 dpf)
Result value: -0.606

Compound: C[C@]12CC[C@@H]3c4ccc(O)cc4C[C@@H](CCCCCCCCC[S+]([O-])CCCC(F)(F)C(F)(F)F)[C@H]3[C@@H]1CC[C@@H]2O (stereo partly drawn)
Tested target: Danio rerio larvae (5 dpf)
Result value: 0.769

Compound: O=C(NCC1CCCCN1)c1cc(OCC(F)(F)F)ccc1OCC(F)(F)F (stereo not drawn) [Flecainide acetate]
Tested target: Danio rerio larvae (5 dpf)
Result value: 1.77

Compound: O=C(O)C[C@H](O)C[C@H](O)/C=C/c1c(C2CC2)nc2ccccc2c1-c1ccc(F)cc1
Tested target: Danio rerio larvae (5 dpf)
Result value: 1.52

Compound: CN1CCC[C@@H]1CCO[C@](C)(c1ccccc1)c1ccc(Cl)cc1 [Clemastine fumarate]
Tested target: Danio rerio larvae (5 dpf)
Result value: -7.67

Compound: Cn1cnc([N+](=O)[O-])c1Sc1ncnc2[nH]cnc12
Tested target: Danio rerio larvae (5 dpf)
Result value: -1.29

Compound: COC(=O)C1=C(C)NC(C)=C(C(=O)OC(C)C)C1c1cccc2nonc12 (stereo not drawn)
Tested target: Danio rerio larvae (5 dpf)
Result value: -10.3

Compound: CCCCCCCN(CC)CCCC(O)c1ccc(NS(C)(=O)=O)cc1 (stereo not drawn) [Ibutilide hemifumarate]
Tested target: Danio rerio larvae (5 dpf)
Result value: -3.17

Compound: CC[C@H](C)C(=O)O[C@H]1C[C@@H](C)C=C2C=C[C@H](C)[C@H](CC[C@@H]3C[C@@H](O)CC(=O)O3)[C@H]21
Tested target: Danio rerio larvae (5 dpf)
Result value: -0.839

Compound: CCOC(=O)[C@H](CCc1ccccc1)N[C@H]1CCc2ccccc2N(CC(=O)O)C1=O [Benazepril hydrochloride]
Tested target: Danio rerio larvae (5 dpf)
Result value: -1.74

* * *

Below, each of the compounds is paired with its reported optomotor response to blue moving lines value.
# Test system: Danio rerio larvae (5 dpf)
# Measurement protocol: optomotor response to blue moving lines, difference vs DMSO (percentage points (treated minus DMSO)); higher = more of the behaviour than the DMSO vehicle control
# Run parameters: 10 µM; exposure time: 3 h pre-incubation + 3 h imaging
Where a name gives a salt, the structure may show the parent alone.

Compound: CCOC(=O)N1CCC(=C2c3ccc(Cl)cc3CCc3cccnc32)CC1 [Loratidine]
optomotor response to blue moving lines: 6.09
--
Compound: COc1c(C)c2c(c(O)c1C/C=C(\C)CCC(=O)OCCN1CCOCC1)C(=O)OC2 [Mycophenolate mofetil]
optomotor response to blue moving lines: 16.8
--
Compound: CCCCc1nc(Cl)c(CO)n1Cc1ccc(-c2ccccc2-c2nnn[nH]2)cc1 [Losartan potassium]
optomotor response to blue moving lines: -6.92
--
Compound: CN[C@H]1CC[C@@H](c2ccc(Cl)c(Cl)c2)c2ccccc21 [Sertraline hydrochloride]
optomotor response to blue moving lines: -9.96
--
Compound: NC(=O)c1ncn([C@@H]2O[C@H](CO)[C@@H](O)[C@H]2O)n1 [Ribavirin]
optomotor response to blue moving lines: 9.25

* * *

Below, each of the compounds is paired with its reported optomotor response to green moving lines value.
# System: Danio rerio larvae (5 dpf)
# Measurement protocol: optomotor response to green moving lines, difference vs DMSO (percentage points (treated minus DMSO)); higher = more of the behaviour than the DMSO vehicle control
# Run parameters: 10 µM; exposure time: 3 h pre-incubation + 3 h imaging
Where a name gives a salt, the structure may show the parent alone.

Compound: COc1ccc(-c2ccc3cc(C(=O)O)ccc3c2)cc1C12CC3CC(CC(C3)C1)C2
Tested target: Danio rerio larvae (5 dpf)
optomotor response to green moving lines: -2.82

Compound: O=C(O)c1cc(/N=N/c2ccc(S(=O)(=O)Nc3ccccn3)cc2)ccc1O
Tested target: Danio rerio larvae (5 dpf)
optomotor response to green moving lines: 0.416

Compound: COc1cc2nccc(Oc3ccc(NC(=O)C4(C(=O)Nc5ccc(F)cc5)CC4)cc3)c2cc1OC
Tested target: Danio rerio larvae (5 dpf)
optomotor response to green moving lines: 9.65

Compound: Clc1ccc2nsnc2c1NC1=NCCN1 [Tizanidine hydrochloride]
Tested target: Danio rerio larvae (5 dpf)
optomotor response to green moving lines: -0.817

Compound: CN(C)C(=N)NC(=N)N [Metformin hydrochloride]
Tested target: Danio rerio larvae (5 dpf)
optomotor response to green moving lines: 7.37

* * *

# Test system: Danio rerio larvae (5 dpf)
# Measurement protocol: optomotor response to red moving lines, difference vs DMSO (percentage points (treated minus DMSO)); higher = more of the behaviour than the DMSO vehicle control
# Run parameters: 10 µM; exposure time: 3 h pre-incubation + 3 h imaging
Counter-ions that a name gives are not always drawn.
# label = 1 (yes) if optomotor response to red moving lines >= -3 else 0 (no)

Molecule: CC/C(=C(\c1ccccc1)c1ccc(OCCN(C)C)cc1)c1ccccc1 [Tamoxifen citrate]
Discrete label: 0 (no)
--
Molecule: C/C(O)=C(\C#N)C(=O)Nc1ccc(C(F)(F)F)cc1 [Teriflunomide]
Discrete label: 0 (no)
--
Molecule: C[C@@H]1C[C@H]2[C@@H]3CCC4=CC(=O)C=C[C@]4(C)[C@@]3(F)[C@@H](O)C[C@]2(C)[C@@]1(O)C(=O)CO [Dexamethasone]
Discrete label: 1 (yes)
--
Molecule: N#C[C@@H]1C[C@@H]2C[C@@H]2N1C(=O)[C@@H](N)C12CC3CC(CC(O)(C3)C1)C2 [Saxagliptin hydrochloride]
Discrete label: 1 (yes)
--
Molecule: COc1cc2nc(N3CCN(C(=O)C4COc5ccccc5O4)CC3)nc(N)c2cc1OC (stereo not given) [Doxazosin mesylate]
Discrete label: 0 (no)

* * *

# Tested on: Danio rerio larvae (5 dpf)
# Measurement protocol: optomotor response to fast red moving lines, difference vs DMSO (percentage points (treated minus DMSO)); higher = more of the behaviour than the DMSO vehicle control
# Run parameters: 10 µM; exposure time: 3 h pre-incubation + 3 h imaging
Where a name gives a salt, the structure may show the parent alone.
# label = Yes if optomotor response >= -0.8 else No

Compound: Cc1nnc(C(C)C)n1C1C[C@H]2CC[C@@H](C1)N2CC[C@H](NC(=O)C1CCC(F)(F)CC1)c1ccccc1 (stereo in doubt) [Maraviroc]
Discrete label: Yes
--
Compound: CCOc1nc2cccc(C(=O)O)c2n1Cc1ccc(-c2ccccc2-c2noc(=O)[nH]2)cc1 [Azilsartan]
Discrete label: No
--
Compound: N#C[C@@H]1C[C@@H]2C[C@@H]2N1C(=O)[C@@H](N)C12CC3CC(CC(O)(C3)C1)C2 [Saxagliptin hydrochloride]
Discrete label: No
--
Compound: Nc1ncn([C@H]2C[C@H](O)[C@@H](CO)O2)c(=O)n1 [Decitabine]
Discrete label: Yes
--
Compound: CCC(=O)O[C@]1(C(=O)SCF)[C@H](C)C[C@H]2[C@@H]3C[C@H](F)C4=CC(=O)C=C[C@]4(C)[C@@]3(F)[C@@H](O)C[C@@]21C [Fluticasone propionate]
Discrete label: No
--
Compound: O=C(NCC1CCCCN1)c1cc(OCC(F)(F)F)ccc1OCC(F)(F)F (centres undefined) [Flecainide acetate]
Discrete label: Yes
--
Compound: CN1CC2c3ccccc3Oc3ccc(Cl)cc3C2C1 (centres undefined) [Asenapine maleate]
Discrete label: No
--
Compound: CN/C(=N\CCSCc1nc[nH]c1C)NC#N [Cimetidine]
Discrete label: No
--
Compound: C[C@H]1O[C@H](O[C@H]2[C@H](O)[C@@H](O)[C@@H](O[C@H]3[C@H](O)[C@@H](O)C(O)O[C@@H]3CO)O[C@@H]2CO)[C@H](O)[C@@H](O)[C@@H]1N[C@H]1C=C(CO)[C@@H](O)[C@H](O)[C@H]1O (some centres undefined) [Acarbose]
Discrete label: Yes
--
Compound: NC(=O)c1ncn([C@@H]2O[C@H](CO)[C@@H](O)[C@H]2O)n1 [Ribavirin]
Discrete label: Yes
--
Compound: Cc1ccccc1C(=O)Nc1ccc(C(=O)N2CCCC(O)c3cc(Cl)ccc32)c(C)c1 (centres undefined) [Tolvaptan]
Discrete label: Yes
--
Compound: Nc1ncn([C@@H]2O[C@H](CO)[C@@H](O)[C@H]2O)c(=O)n1 [5-Azacytidine]
Discrete label: Yes
--
Compound: CC(C)c1nc(N(C)S(C)(=O)=O)nc(-c2ccc(F)cc2)c1/C=C/[C@@H](O)C[C@@H](O)CC(=O)O [Rosuvastatin calcium]
Discrete label: Yes
--
Compound: O=c1[nH]c(=O)n([C@H]2C[C@H](O)[C@@H](CO)O2)cc1C(F)(F)F [Trifluorothymidine]
Discrete label: Yes
